Please go through the items and note down their IC50.
Report the value in nM with no unit label.

Form field IC50 for item CCNC(=O)C(C)c1ccc(O[C@@H]2CCN(c3nc(C)ccc3F)C2)cc1 (stereo partly drawn) [Example 7.25] on human ACC2 (Homo sapiens (Human)): 500

Considering CC(C(=O)NC1CC1C)c1ccc(O[C@@H]2CCN(c3nc(N(C)C)ncc3F)C2)cc1 (stereo partly drawn) [Example 1.9] , its IC50 with human ACC2 (Homo sapiens (Human)) was recorded as 195

Considering CC(C(=O)NC1CC1C)c1ccc(O[C@@H]2CCN(c3nc(N(C)C)ncc3F)C2)cc1 (single isomer, unassigned) [6.2 isomer 4] , its IC50 with human ACC2 (Homo sapiens (Human)) was recorded as 1480
